The measured values listed here are drawn from ChEMBL document CHEMBL3885861.

Each entry below lists one item and its recorded PL value.
Organism: Rattus norvegicus
Assay: Open TG-GATES - Regimen: Single
Assay type: toxicity, organism-based, Sprague-Dawley
Parameters: regimen Single, gender Male, age 6 weeks
Settings: in vivo, po, 0 mg/kg, 3 h, tissue Plasma, route gavage, dose level Control
// note: answer is a bare numeric in mg/dL

PL reported for this compound "CC1=C(/C=C/C(C)=C/C=C/C(C)=C/CO)C(C)(C)CCC1" : 148.6

PL for "O=C(CCCN1CCC(O)(c2ccc(Cl)cc2)CC1)c1ccc(F)cc1" is 151.4

So, "Cc1ccc(C)c(OCCCC(C)(C)C(=O)O)c1" ? Its PL was 179.2

The measured PL associated with "CN(C)CCN(Cc1cccs1)c1ccccn1" reads 127.6

The compound listed as "NC(N)=Nc1nc(CSCCC(N)=NS(N)(=O)=O)cs1" shows PL equal to 139

// PL lookup, compound = "COC1=CC(=O)C[C@@H](C)[C@]12Oc1c(Cl)c(OC)cc(OC)c1C2=O" , result: 167.6

PL measured on "CN(C)CCCN1c2ccccc2CCc2ccc(Cl)cc21" = 140

Lab note: COc1ccc2[nH]c([S+]([O-])Cc3ncc(C)c(OC)c3C)nc2c1 (stereo not given) gave PL of 130.8

Please fill in: PL reported for CCCNC(=O)NS(=O)(=O)c1ccc(Cl)cc1 [CHLORPROPAMIDE] = 137.8

Form field PL, entry CC(C)OC(=O)C(C)(C)Oc1ccc(C(=O)c2ccc(Cl)cc2)cc1 [FENOFIBRATE] : 140.8
